Test system: S. cerevisiae Mot1-301 ts growth rescue, BacTiter-Glo ATP luminescence
Assay comment: restored Mot1-301 yeast growth at 38.5C – whole organism, S. cerevisiae, Mot1-301 ts mutant, luminescence, dose retest, SUMOylation pathway inhibitor project, confirmation (AID 463204);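 also: growth at restrictive 38.5 degrees C of Mot1-301 OY566 strain; actives raise luminescence by restoring growth of the ts mutant at high temperature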
Active and inactive are the calls of the source.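 The calls were made as follows: active = AC50 no more than ten times the top concentration tested, that is within one log above it; inconclusive = flat curve fit with activity between 30% and 70%, or invalid poor fit; inactive = AC50 beyond ten times the top tested dose.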
Output constraint: value belongs to active, inactive

// known answers, use as guide
Per the assay record, what outcome was assigned to Cc1ccc(NC(=O)COC(=O)c2csc3c2CCC(C)C3)cc1S(=O)(=O)N1CCCCC1 (stereo not drawn) ?
inactive

Request: CCOC(=O)C1(Cc2cccc(Cl)c2)CCCN(C(=O)CCOC)C1 (stereo not drawn)
inactive

Request: `COc1ccc2c(c1)OC[C@H]1[C@H]2N2C(=O)c3cc(OC)c(OC)cc3NC(=O)[C@@]2(C)[C@H]1c1ccccc1`
active

Request: `Cc1c(C(=O)Nc2cccc(F)c2)cnn1-c1ccccc1`
inactive

Request: `CCN1CSC(=S)N(Cc2ccc(OC)cc2)C1`
active

Others:
Per the assay record, what outcome was assigned to `COc1ccc(NS(=O)(=O)c2cccc(C(=O)NCCCn3ccnc3)c2)cc1` ?
inactive

Request: `COc1cccc(/C=C2\SC(N3CCC(C)CC3)=NC2=O)c1OC`
inactive

Request: `O=C(Nc1ncccn1)c1ccc(C(F)(F)F)cc1`
inactive
